Field: composite z-score. Provide a value for each of the compounds that follow.
- measuredTarget: Follistatin-related protein 3 (Homo sapiens) (UniProt O95633)
- Sequence (O95633 whole entry, looked up): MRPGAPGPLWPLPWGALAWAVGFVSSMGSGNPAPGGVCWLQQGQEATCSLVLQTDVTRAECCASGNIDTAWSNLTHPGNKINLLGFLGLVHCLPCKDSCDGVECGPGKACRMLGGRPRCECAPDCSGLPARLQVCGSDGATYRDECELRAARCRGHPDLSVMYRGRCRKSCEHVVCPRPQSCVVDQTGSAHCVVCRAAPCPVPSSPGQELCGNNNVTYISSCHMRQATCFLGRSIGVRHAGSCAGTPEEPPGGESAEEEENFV
- assayMethodText: FSTL3 binders on small-molecule microarrays, primary screen, biochemical, small-molecule microarray, 635 nm fluorescence (AID 1105);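 further: score merges emission near 667 nm and signal to noise per printed spot across three slides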
- reportedConditions: FSTL3 binding, higher = more signal
Give bare numbers.

smi	measuredTarget	valueObserved
COC(=O)[C@@]1(Cc2ccccc2)[C@H]2c3cc(C(=O)N(C)C)n(CCN4CNCC4=O)c3C[C@H]2CN1C(=O)c1ccccc1	Follistatin-related protein 3 (Homo sapiens) (UniProt O95633)	-0.618
COCCOC(=O)N1C(=O)[C@@]2(c3cc(C#CC4=CCCCC4)ccc31)[C@H](c1ccccc1OCCO)N1[C@H](c3ccccc3)[C@H](c3ccccc3)OC(=O)[C@H]1[C@@H]2C(=O)Nc1nc2ccccc2s1	Follistatin-related protein 3 (Homo sapiens) (UniProt O95633)	0.981

Now for the compound whose composite z-score we want.
Value lookup for composite z-score; key = COc1cccc(/C=C/C=O)c1
0.237

====

Could you please report measured composite z-score for the items listed next?
- System: Plasmodium falciparum Sir2 (PF13_0152, Sir2A)
- assayMethodText: pfSir2 binders on small-molecule microarrays, primary screen, biochemical, small-molecule microarray, 635 nm fluorescence (AID 1098);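 further: score merges spot fluorescence intensity with its signal-to-noise ratio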
- reportedConditions: small-molecule microarray binding, fluorescence 635 nm; higher = more signal
Give bare numbers.

> print(dat)
                                   compound       quantityname  valueobserved
1  COCCCNC(=O)[C@@]1(Cc2ccccc2N=[N+]=[N-])COC(c2ccc(OCCCO)cc2)=N1  composite z-score          0.955
2  COC(=O)[C@@]1(Cc2ccc(F)cc2)[C@H]2c3cc(C(=O)N(C)C)n(CCc4ccc(O)c(OC)c4)c3C[C@H]2CN1C(=O)c1ccccc1  composite z-score         0.0736
3  [N-]=[N+]=Nc1ccccc1[C@H]1OC(c2ccc(OCCCO)cc2)=N[C@@]1(CCS(=O)(=O)c1ccccc1)C(=O)NCCN1CCOCC1  composite z-score           1.35
4  CN1C(=O)C2C=CC(C(O)c3cccc4ccccc34)N(N3CCCCC3)C2C1=O (stereo not drawn)  composite z-score           1.52
5  CC(C)C[C@@H]1NC(=O)[C@@H]2C[C@H](C(=O)NCCCCN(C)C)[C@H](c3cccc(OCCO)c3)N2C1=O  composite z-score           1.66
6  O[C@@H](Cc1ccccc1)[C@@H](/C=C/C1CC1)N(CC#Cc1ccccc1)Cc1cccc(Cl)c1  composite z-score         -0.546
7  CC(C)C[C@@H]1NC(=O)[C@@H]2C[C@H](C(=O)NCCCCCN)[C@H](c3ccc(O)cc3)N2C1=O  composite z-score          0.311

Using the record for Cc1ccc(S[C@]2(C(=O)O)CC(=O)N(C3Cc4ccccc4C3)[C@@H]2c2ccc(CO)cc2)cc1 , report its composite z-score.
1.02

====

I'd appreciate it if you could supply composite z-score values for the items below.
- assayMethodText: COS7 lysate on small-molecule microarray, probe aHis, 635 nm (AID 1123);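 further: z-score combines 667nm fluorescence intensity with signal-to-noise per printed compound spot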
- reportedConditions: COS7 cell lysate, fluorescence, higher = more signal

Parameter requested: composite z-score. Apply to each item below.
1. Cc1ccc(S[C@]2(C(=O)NCC(F)(F)F)CC(=O)N(Cc3ccccc3C(F)(F)F)[C@@H]2c2ccc(CO)cc2I)cc1
2. CC(C)(C)N1CC=CC23O[C@@H]4C=CCOC(=O)[C@@H]4[C@H]2C(=O)N(CCCCCCO)[C@@H]3C1=O (some centres undefined)
3. N#Cc1ccc(NN2C(C(O)c3ccc(F)cc3)C=CC3C(=O)N(c4ccccc4)C(=O)C32)cc1 (centres undefined)
4. CC(=O)NCCCC[C@@H]1NC(=O)[C@H]2C[C@@H](C(=O)NCCCC[N+](C)(C)C)[C@@H](c3cccc(OCCO)c3)N2C1=O

0.616
-0.112
2.59
1.75

====

- measuredTarget: Neurogenic locus notch homolog protein 2 (Homo sapiens) (UniProt Q04721)
- Sequence (Q04721 whole entry, looked up): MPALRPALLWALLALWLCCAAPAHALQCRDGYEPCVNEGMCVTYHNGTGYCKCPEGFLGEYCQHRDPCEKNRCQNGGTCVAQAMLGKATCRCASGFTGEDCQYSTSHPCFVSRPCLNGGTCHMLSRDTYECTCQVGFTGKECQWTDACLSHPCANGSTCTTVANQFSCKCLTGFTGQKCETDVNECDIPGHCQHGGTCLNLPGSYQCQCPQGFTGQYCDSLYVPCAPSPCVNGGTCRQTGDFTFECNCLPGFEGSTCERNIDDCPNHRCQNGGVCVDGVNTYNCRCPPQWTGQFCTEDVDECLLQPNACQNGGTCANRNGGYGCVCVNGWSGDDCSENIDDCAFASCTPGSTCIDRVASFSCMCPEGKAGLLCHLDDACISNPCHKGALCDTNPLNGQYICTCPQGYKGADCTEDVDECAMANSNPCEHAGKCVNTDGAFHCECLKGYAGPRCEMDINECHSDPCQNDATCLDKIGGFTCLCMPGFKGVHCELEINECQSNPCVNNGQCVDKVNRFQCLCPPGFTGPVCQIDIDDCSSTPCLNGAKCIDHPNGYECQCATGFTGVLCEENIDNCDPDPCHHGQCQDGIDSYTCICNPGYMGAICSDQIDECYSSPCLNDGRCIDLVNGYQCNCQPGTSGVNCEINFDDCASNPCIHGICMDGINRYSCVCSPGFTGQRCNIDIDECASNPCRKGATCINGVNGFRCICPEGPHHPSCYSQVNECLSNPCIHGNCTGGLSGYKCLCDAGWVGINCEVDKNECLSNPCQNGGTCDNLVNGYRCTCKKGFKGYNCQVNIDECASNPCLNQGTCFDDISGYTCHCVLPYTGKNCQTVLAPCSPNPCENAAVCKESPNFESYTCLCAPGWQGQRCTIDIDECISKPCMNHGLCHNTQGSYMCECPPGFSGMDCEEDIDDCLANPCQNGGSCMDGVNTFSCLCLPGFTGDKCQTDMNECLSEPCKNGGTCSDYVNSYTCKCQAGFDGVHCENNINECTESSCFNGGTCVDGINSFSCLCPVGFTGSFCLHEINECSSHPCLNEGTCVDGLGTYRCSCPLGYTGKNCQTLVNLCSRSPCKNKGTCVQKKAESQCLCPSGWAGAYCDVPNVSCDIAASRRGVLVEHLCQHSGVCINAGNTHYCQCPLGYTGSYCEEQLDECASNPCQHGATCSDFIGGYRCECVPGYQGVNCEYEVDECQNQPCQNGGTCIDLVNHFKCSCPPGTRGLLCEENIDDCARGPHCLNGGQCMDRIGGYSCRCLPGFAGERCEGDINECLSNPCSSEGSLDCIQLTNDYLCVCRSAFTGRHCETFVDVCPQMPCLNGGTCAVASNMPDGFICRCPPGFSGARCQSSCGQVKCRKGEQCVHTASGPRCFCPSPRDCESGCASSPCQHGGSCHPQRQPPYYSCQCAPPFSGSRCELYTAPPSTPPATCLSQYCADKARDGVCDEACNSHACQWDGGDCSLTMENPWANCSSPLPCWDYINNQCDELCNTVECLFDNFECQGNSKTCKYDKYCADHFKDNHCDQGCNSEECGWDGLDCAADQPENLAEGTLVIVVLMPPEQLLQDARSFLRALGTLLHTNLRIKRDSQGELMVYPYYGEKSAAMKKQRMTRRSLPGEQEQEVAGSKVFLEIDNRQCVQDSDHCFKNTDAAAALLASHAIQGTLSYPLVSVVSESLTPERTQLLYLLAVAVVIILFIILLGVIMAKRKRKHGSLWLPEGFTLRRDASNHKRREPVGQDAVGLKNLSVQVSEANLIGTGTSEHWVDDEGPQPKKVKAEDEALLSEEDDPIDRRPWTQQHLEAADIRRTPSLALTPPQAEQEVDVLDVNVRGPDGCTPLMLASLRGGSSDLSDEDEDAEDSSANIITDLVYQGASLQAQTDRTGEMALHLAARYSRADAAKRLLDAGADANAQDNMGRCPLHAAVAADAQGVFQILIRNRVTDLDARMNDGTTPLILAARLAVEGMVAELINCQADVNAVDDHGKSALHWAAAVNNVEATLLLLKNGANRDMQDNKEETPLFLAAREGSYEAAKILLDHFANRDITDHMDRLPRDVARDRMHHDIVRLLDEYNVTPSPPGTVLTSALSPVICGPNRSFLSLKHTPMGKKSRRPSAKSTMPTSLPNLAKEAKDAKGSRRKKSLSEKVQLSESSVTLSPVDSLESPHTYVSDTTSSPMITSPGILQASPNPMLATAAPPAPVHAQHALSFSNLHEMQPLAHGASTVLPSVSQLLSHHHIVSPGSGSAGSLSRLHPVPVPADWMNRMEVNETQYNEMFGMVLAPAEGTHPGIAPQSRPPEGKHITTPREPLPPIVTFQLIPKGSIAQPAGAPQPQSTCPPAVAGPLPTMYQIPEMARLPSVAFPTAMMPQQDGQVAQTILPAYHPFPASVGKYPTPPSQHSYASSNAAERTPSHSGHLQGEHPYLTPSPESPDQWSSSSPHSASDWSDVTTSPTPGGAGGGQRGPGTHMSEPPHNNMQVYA
- assayMethodText: Notch2 binders on small-molecule microarrays, primary screen, biochemical, small-molecule microarray, 635 nm fluorescence, stem cell growth factors (AID 1073)
- reportedConditions: Notch2 binding, higher = more signal
Threshold rule: composite z-score greater than or equal to 0.5 is class 1; below that, class 0.

Examples from the recorded data:
compound	groupLabel
CCCCO[C@H]1C[C@H]2C(I)=C[C@@H]1C(=O)[C@]21CO1	class 0
O=C1NC(=O)C2C1C=CC(C(O)c1cccc3ccccc13)N2Nc1ccc(Cl)cc1Cl (stereo not given)	class 1
C=C(/C(=C/C[C@H](OC(C)=O)c1cccc(OCCO)c1)c1cnc2ccccc2c1)C(C)C	class 1
CC(C)C(=C=CC[C@H](O)c1ccc(OCCO)cc1)C[C@H](O)c1ccccn1	class 0
O=C1N(Cc2ccccc2)Cc2ccccc2[C@@H]2OC(c3ccc(OCCCO)cc3)=N[C@]12CCS(=O)(=O)c1ccccc1	class 1

composite z-score >= 0.5 for OCCCC1=CC(c2ccc(CN3CCCC3)cc2)N(Cc2sc3ccccc3c2Cl)CC1 (stereo not given) ?
class 1

Textbook exercise: given the entry CCCCC=C[C@@H](NC(=O)c1ccc(-c2ccccc2)cc1)c1ccccc1 , state whether its composite z-score is greater than or equal to 0.5.
class 1

Does C[C@@H]1NC(=O)[C@@]23C(=O)N[C@@H](Cc4ccccc4)C2[C@H](C)[C@@]2(C)O[C@H]2C3/C=C/C/C=C\CNC(=O)[C@@H]2CCCN2C1=O (stereo not given in full) have a reported composite z-score of at least 0.5?
class 0

====

Can you tell me z-score for the items I'm about to list?
- assayMethodText: MM1S cell viability effects, profiling panel, calcein-AM fluorescence, 48 h, basal (AID 1165);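 further: viability of MM1S multiple myeloma cells under basal unstimulated conditions; test concentration not given here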
- reportedConditions: higher = more signal
Numbers only.

Below, 7 compounds whose answers are already recorded.
> print(dat)
                                   compound  valueobserved
1  CC(CO)N1C(=O)[C@@H]2[C@H]3C(=O)OCC=C[C@H]3OC23C=CCN(Cc2ccccc2)C(=O)[C@@H]13 (stereo partly drawn)           1.17
2  CC(C)(C)N1CC=CC23O[C@@H]4C=CCOC(=O)[C@@H]4[C@H]2C(=O)N(CCCCCCO)[C@@H]3C1=O (stereo partly drawn)           1.53
3  COCCCNC(=O)[C@@]1(Cc2ccccc2CN=[N+]=[N-])N=C(c2ccc(OCCCO)cc2)O[C@H]1c1ccccc1          -2.93
4  O=C1OCCC=C[C@H]2OC34C=CCN(Cn5nnc6ccccc65)C(=O)[C@H]3N(CCCCCCO)C(=O)[C@@H]4C12 (stereo partly drawn)           1.78
5  COC1OC[C@]2(C)[C@H]3C4=C(CN2C(=O)OC(C)(C)C)[C@H](C)C(CO)C(CO)C4CC[C@@H]13 (stereo partly drawn)          0.728
6  CC(=O)NCCCC[C@@H]1NC(=O)[C@H]2C[C@@H](C(=O)NCCCC[N+](C)(C)C)[C@@H](c3cccc(OCCO)c3)N2C1=O           -1.7
7  CC=CC(O)C1C=CC2C(=O)N(c3ccccc3)C(=O)C2N1Nc1ccccc1F (stereo not drawn)          0.807

Dear colleague, I am looking for the recorded z-score of the following compound: CO[C@H]1O[C@H](CO)[C@@H](OC(=O)Nc2ccccc2-c2ccccc2)[C@H](OC(=O)Nc2ccc3c(c2)OCO3)[C@H]1OC(=O)Nc1ccc2c(c1)OCO2
-1.02

====

Give z-score for every item shown.
- assayMethodText: Plasmodium falciparum growth inhibition, primary screen, strain 3D7, DAPI fluorescence, 100 nL (AID 1184);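 further: parasites grown inside human red blood cells in medium with human serum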
- reportedConditions: P. falciparum 3D7 growth, 3 d, higher = more signal

Field: z-score. Fill in for each record below.
1. CCOC(=O)C[C@H]1[C@H](OC(=O)c2ccc(C(=O)c3ccccc3)cc2)[C@@H](NC(=O)Cc2ccc(OC)cc2)c2cc(OCCCO)ccc2N1C(=O)c1ccccc1
2. C=CCN1C(=O)[C@@]2(O[C@@H](CCn3cc([C@H](O)c4ccccc4)nn3)[C@H]([Si](C)(C)c3ccc(OC)cc3)[C@H]2C)c2cc(N3CCC3=O)ccc21
3. COC(=O)c1c(CC[C@@H](CO)NC(=O)N2CCC[C@H]2Cn2cc(Cc3ccccc3)nn2)oc(C(C)=O)c1C(=O)OC
4. Cc1cc(C)cc(N2C(=O)CSC2c2cccc([N+](=O)[O-])c2)c1 (configuration not stated)

[-0.133, -2.1, -0.547, -0.0855]

// for each compound below, give its z-score
1. C=C(/C(=C/C[C@@H](OC(C)=O)c1cccc(OCCO)c1)c1cc(C(=O)OC)ccc1OC)C(C)C
2. COCCOC(=O)N1C(=O)[C@@]2(c3cc(C#Cc4ccc(OC)cc4)ccc31)[C@H](c1ccc(O)cc1)N1[C@H](c3ccccc3)[C@H](c3ccccc3)OC(=O)[C@H]1[C@@H]2C(=O)N1CCCCCCC1

-3.06
-1.55

Kindly give each listed record's z-score.
1. COc1ccc(CCN2C(=O)[C@@]3(Cc4ccccc42)c2ccccc2C(=O)N(Cc2ccccc2OC)[C@H]3c2ccc(CO)cc2)cc1
2. CCOC(=O)C[C@H]1[C@H](OC(=O)Cc2ccc3c(c2)OCO3)[C@@H](NC(=O)Cc2ccc(OC)cc2)c2cc(OCCCO)ccc2N1C(=O)c1ccc2ccccc2n1
3. COCCOC(=O)N1C(=O)[C@@]2(c3cc(C#CCC(C(=O)OC)C(=O)OC)ccc31)[C@H](C(=O)N1CCc3cc(OC)c(OC)cc3C1)[C@H]1C(=O)O[C@H](c3ccccc3)[C@H](c3ccccc3)N1[C@@H]2c1ccc(OCCO)cc1
4. COC(=O)c1c2oc(c1C(=O)OC)C(=O)N(C)Cc1cn(nn1)C[C@H](Cc1ccccc1)NC(=O)N[C@H](CO)CC2
5. CC(=O)c1ccc(C(O)C2C=CC3C(=O)N(c4ccccc4)C(=O)C3N2Nc2ccc(C#N)cc2)cc1 (configuration not stated)

[-1.39, -0.919, -2.1, -0.38, 0.981]

Sample COc1ccc([Si](C)(C)[C@H]2[C@H](CCn3cc([C@H](O)c4ccccc4)nn3)O[C@@]3(C(=O)N(Cc4ccc(N5C(=O)c6cccc7cccc5c67)cc4)c4ccccc43)[C@@H]2C)cc1 — what was its z-score?
-1.59
